measurement.target: hGR (Homo sapiens, UniProt P04150)
Sequence (P04150 1-777): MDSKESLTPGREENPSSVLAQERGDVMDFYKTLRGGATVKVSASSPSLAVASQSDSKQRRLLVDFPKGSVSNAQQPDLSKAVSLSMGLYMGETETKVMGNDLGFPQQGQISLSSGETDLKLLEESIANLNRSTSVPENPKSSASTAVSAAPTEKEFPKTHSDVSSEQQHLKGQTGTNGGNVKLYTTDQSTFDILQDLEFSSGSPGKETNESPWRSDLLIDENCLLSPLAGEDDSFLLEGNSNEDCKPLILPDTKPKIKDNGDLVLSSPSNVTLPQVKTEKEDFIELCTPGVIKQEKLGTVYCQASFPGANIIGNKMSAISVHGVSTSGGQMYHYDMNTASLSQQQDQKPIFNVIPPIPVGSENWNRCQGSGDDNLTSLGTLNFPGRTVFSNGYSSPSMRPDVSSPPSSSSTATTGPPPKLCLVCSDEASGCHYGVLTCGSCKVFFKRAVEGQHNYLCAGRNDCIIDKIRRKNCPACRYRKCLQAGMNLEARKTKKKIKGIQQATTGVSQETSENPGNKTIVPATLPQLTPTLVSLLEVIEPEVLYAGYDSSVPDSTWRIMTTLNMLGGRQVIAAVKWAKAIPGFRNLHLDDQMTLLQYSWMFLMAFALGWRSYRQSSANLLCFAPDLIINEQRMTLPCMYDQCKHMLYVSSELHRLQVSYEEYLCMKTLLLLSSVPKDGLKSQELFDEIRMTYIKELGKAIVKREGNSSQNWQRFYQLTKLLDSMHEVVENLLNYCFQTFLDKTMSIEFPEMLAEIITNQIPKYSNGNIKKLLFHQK
method.notes: Co-transfection assay, other nuclear receptors: hGR
assay.metric: IC50 (µM)
Write the answer as a number in µM, unit excluded.

Asked: Read off the recorded IC50 for N#Cc1ccc(N2CCC[C@@H]2[C@@H](O)C(F)(F)F)cc1C(F)(F)F
Given back: 1.6

====

method.notes: Pharmacokinetics in orchidectomized male rats (plasma, Day 14)
Format: in vivo
test.settings: male, rat, po, 1 mg/kg, ORX male rats, Day 14, 1 mg/kg, read-out: AUC6
assay.metric: AUC (ng·h/mL)
Write the answer as a number in ng·h/mL, unit excluded.

Asked: Read off the recorded AUC for N#Cc1ccc(N2CCC[C@@H]2[C@@H](O)C(F)(F)F)cc1C(F)(F)F
Given back: 63

====

method.notes: Pharmacokinetics in orchidectomized male rats (plasma, Day 14)
Type: in vivo
test.settings: rat, ORX male rats, PO, Day 14, 3 mg/kg
Method: In this assay, two-month old rats were acclimated in a vivarium for one week. After this acclimation period, rats were surgically orchidectomized under isoflurane anesthesia and left untreated for 14 days. After 14 days, animals were sorted into groups such that no statistically significant differences in mean body weights were observed. Rats began receiving treatment 14 days after the day of surgery. […] Peak pharmacokinetic (PK) parameters were calculated and rounded to three decimal places.
assay.metric: Tmax (h)
Write the answer as a number in h, unit excluded.

Asked: Read off the recorded Tmax for N#Cc1ccc(N2CCC[C@@H]2[C@@H](O)C(F)(F)F)cc1C(F)(F)F
Given back: 1.3

====

method.notes: Pharmacokinetics in orchidectomized male rats (plasma, Day 14)
Format: in vivo
test.settings: male, rat, po, 3 mg/kg, ORX male rats, Day 14, 3 mg/kg, read-out: AUC6
assay.metric: AUC (ng·h/mL)
Write the answer as a number in ng·h/mL, unit excluded.

Asked: Read off the recorded AUC for N#Cc1ccc(N2CCC[C@@H]2[C@@H](O)C(F)(F)F)cc1C(F)(F)F [Compound 102]
Given back: 113

All values here come from patent US11358931B2.
